- Tested on: HL-60(TB) leukemia
- TEST PROTOCOL: NCI tumour cell line growth inhibition, 48 h
PROPERTY MEASURED: log10(TGI) (log10 of the value in µM)
A value of 2 here means TGI of 100 in µM, since values are log10.

COMPOUND | PROPERTY MEASURED | MEASUREMENT
Cc1cc(O)c2c(c1)C(=O)C(c1c(C)cc3c(c1O)C(=O)C1OC1C3=O)=CC2=O (stereo not given) | log10(TGI) | -1.82
Cc1ccc(S(=O)(=O)N2CCN(CCO)CCN(S(=O)(=O)c3ccc(C)cc3)CCN(CCO)CC2)cc1 | log10(TGI) | 1.57
FC(F)(F)c1cc(NC2=NCCN=C(Nc3cc(C(F)(F)F)cc(C(F)(F)F)c3)SS2)cc(C(F)(F)F)c1 | log10(TGI) | 1.20
O=c1oc2cc(OS(=O)(=O)c3ccccc3)ccc2c2c1CCCCC2 | log10(TGI) | 0.93

Query block: Checklist item: log10(TGI) tested on HL-60(TB) leukemia, entry "COc1cc(S(=O)(=O)N/N=C/c2cc(Br)c(O)c(OC)c2)c(OC)cc1NC(C)=O" , value?
Result block: 1.76

Origin of measurements: PubChem BioAssay (NCI)
